Reference for the values: BindingDB's records for doi:10.1021/jm970328b

Here the recorded Ki is given for each entry.
# measurementTarget: D(2) dopamine receptor (Bos taurus)
# Sequence (P20288 whole entry): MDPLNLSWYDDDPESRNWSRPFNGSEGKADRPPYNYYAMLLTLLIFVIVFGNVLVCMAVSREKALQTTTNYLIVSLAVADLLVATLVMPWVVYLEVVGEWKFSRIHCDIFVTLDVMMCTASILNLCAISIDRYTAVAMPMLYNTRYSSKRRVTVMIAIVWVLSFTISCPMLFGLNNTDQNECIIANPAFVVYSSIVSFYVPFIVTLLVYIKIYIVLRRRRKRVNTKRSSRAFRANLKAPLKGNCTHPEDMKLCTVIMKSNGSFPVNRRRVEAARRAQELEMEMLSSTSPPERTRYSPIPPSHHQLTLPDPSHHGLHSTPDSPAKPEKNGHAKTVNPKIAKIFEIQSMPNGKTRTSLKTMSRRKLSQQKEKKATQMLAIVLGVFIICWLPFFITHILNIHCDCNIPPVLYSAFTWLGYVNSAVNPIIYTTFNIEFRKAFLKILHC
# procedureSummary: Inhibitory constant of compound in presence of Gpp(NH)p (Pre treated with 100 nM) calculated for the low affinity components of the [3H]spiroperidol binding to Dopamine receptor D2
assayMetric: Ki (nM)

CC(C)C[C@@H](C(=O)NCC(N)=O)N1CC(=O)N2CCC[C@H]2C1=O: 104
NC(=O)[C@H]1CS[C@@H]2CC(N3CC(=O)N4CCC[C@H]4C3=O)C(=O)N12 (some centres not stated): 106

###

Here the recorded Ki is given for each entry.
# measurementTarget: UniProt P20288
# procedureSummary: Inhibitory constant of compound in presence of Gpp(NH)p calculated for the low affinity components of the [3H]spiroperidol binding to Dopamine receptor D2
Where a SMILES comes first, the peptide text is derived from it.
assayMetric: Ki (nM)

NC(=O)[C@H]1CS[C@@H]2CC(N3CC(=O)N4CCC[C@H]4C3=O)C(=O)N12 (some centres undefined): 183
CC(C)C[C@@H](C(=O)NCC(N)=O)N1CC(=O)N2CCC[C@H]2C1=O: 172
CC(C)C[C@H](NC(=O)[C@@H]1CCCN1)C(=O)NCC(N)=O [L-pro-L-leu-gly-NH2] (H-Pro-Leu-Gly-NH2): 60
NC(=O)CN1CCC(N2CC(=O)N3CCC[C@H]3C2=O)C1=O (some centres undefined): 50
